Ref: ChEMBL document CHEMBL1938286

System: RAW264.7
Assay: Antiinflammatory activity in mouse RAW264.7 cells assessed as inhibition of LPS-induced TNFalpha production administered 1 hr before LPS challenge measured after 24 hrs by ELISA
property: IC50
Units required after the number.

Entry COc1cc(CCCc2c(OC)cc(O)c(OC)c2OC)ccc1O — recorded IC50 = 17.3 µM
